Quick reference for TGI among some compounds
System: TK-10 renal
protocol-summary: NCI tumour cell line growth inhibition, 48 h

compound	TGI
O=c1[nH]c(Br)nc2c(Br)c[nH]c12	> 100 µM
O=[N+]([O-])c1ccccc1N=Nc1c(O)[nH]c2ccccc12	> 100 µM
COc1ccc2[nH]cc(-c3nc(-c4cn(C)c5ccncc45)cs3)c2c1	3.12 µM
C=C(C=O)c1c2c(nc3ccccc13)C(=O)c1ccccc1C2=O	2.32 µM
C1COC(NC(C2CC2)C2CC2)=N1	> 100 µM
O=c1c2ccc3cccc4c(=O)cc(c5ccccc15)-c2c34	> 100 µM
CCCNC(=S)N/N=C/c1cccc(C)n1	> 100 µM
OCCN(CCO)c1ccc2c(C(F)(F)F)cc(C(F)(F)F)nc2n1	> 100 µM
CCN(CC)CCOc1ccc(/C=C2\CC3C4CCC5=CC(=O)CC[C@]5(C)C4CC[C@]3(C)C2=O)cc1OC (stereo partly drawn)	5.59 µM
O=C(O)/C(=C/c1ccccc1[N+](=O)[O-])c1ccccc1	> 100 µM
O=C1CCCC/C1=C/C=C/c1ccccc1	> 100 µM
COc1cc(OC)c2c(c1OC)OCC(Cc1ccc(O)cc1)C2=O (stereo not drawn)	> 25 µM
CCC[CH2][Sn]([CH2]CCC)([O]C(=O)c1cccc(F)c1)[O]C(=O)c1cccc(F)c1	2.58 µM
ClCCN(CCCl)c1ccc(-n2cnc3c(Cl)ncnc32)cc1	81.9 µM
CC(=O)Nc1ncc(Sc2ccccc2C(=O)O)s1	> 100 µM
Cn1c(COC(=O)N2CCCCC2)nc2c(N3CCOCC3)nc(-c3ccccc3)nc21	2.66 µM
C=C1CC(CCCl)(c2ccccc2)OC1=O (stereo not drawn)	> 77.7 µM
Cn1c(CCC#N)nc2ccc(Br)cc2c1=O	> 100 µM
COc1cccc(/C=N\Nc2ccc([N+](=O)[O-])cn2)c1O	> 100 µM
COC(=O)CC1(CNC(=O)OCc2ccccc2)OCCO1	> 100 µM
CC(=O)OC12c3ccccc3C1CCCCCC21OCCCO1 (stereo not drawn)	> 100 µM
Cc1c(C(=O)/C=C/c2ccc(Cl)cc2)[n+](=O)c2ccccc2n1[O-]	35.5 µM
c1ccc(N=C2SC(=NNc3ccccc3)SC2=Nc2ccccc2)cc1	> 100 µM

----------
Below, each of the molecules is paired with its reported TGI value.
Test system: SK-MEL-28 melanoma
protocol-summary: NCI tumour cell line growth inhibition, 48 h

molecule	TGI
O=C1NC2(CCCCC2)N=C2C(Cl)CCCC12Cl (centres undefined)	> 100 µM
COC(=O)c1ccccc1NC(=O)/C(=N\NC(C)(C)C)C(C#N)c1nc(-c2ccc([N+](=O)[O-])cc2)cs1 (centres undefined)	> 100 µM
CC(NS(C)(=O)=O)c1ccccc1 (centres undefined)	> 100 µM
N#Cc1c(-c2ccccc2)/c(=C\O)c(=O)n2c1nc1ccccc12	> 100 µM
COc1cc(-c2[nH]ccc2Cl)oc1C1=C2N=C3C=C2C(C(C)C)C1CCCCCCCC3 (centres undefined)	2.84 µM
O=C1c2ccccc2-c2nc(-c3cccnc3)cc3c2c1nc1ccccc13	> 100 µM
CC(=O)N1CC2Nc3ccccc3C2CC1CO (centres undefined)	> 100 µM
CC(=O)OC1CC2CCC1(C)C2(C)C (centres undefined)	> 100 µM
Cc1nn(C(=O)c2ccc(Cl)cc2)c2c1C(c1ccc([N+](=O)[O-])cc1)SC(N)=N2 (centres undefined)	> 10 µM
ClCCN(CCCl)c1ccc(-n2cnc3c(Cl)ncnc32)cc1	3.64 µM
CC1CCCC2=C1C(c1ccc(Cl)cc1)n1c(s/c(=C\c3ccc(Cl)cc3)c1=O)=N2 (centres undefined)	> 100 µM
CC(=O)OCC1OC(n2c(N)c(C#N)c(-c3ccccc3)c(C#N)c2=S)C(OC(C)=O)C(OC(C)=O)C1OC(C)=O (centres undefined)	> 100 µM
C=CC1CC12C(=O)C1OC2(C)C2C(=O)c3c(ccc4c3ccc3ccccc34)C(=O)C12 (centres undefined)	> 100 µM
CCN(CC)CCOc1ccc(/C=C2\CC3C4CCC5=CC(=O)CC[C@]5(C)C4CC[C@]3(C)C2=O)cc1OC (some centres undefined)	5.67 µM
CC(=O)Nc1ncc(Sc2ccccc2C(=O)O)s1	> 100 µM
CC(C)OP(=O)(CN(C)/C(F)=N\C(F)(F)F)OC(C)C	> 100 µM
COc1ccc2c(c1)c(C1(c3cn(C)c4ccc(OC)cc34)C(=O)Nc3ccc(F)cc31)cn2C	25.5 µM
CC(C)CCC1(O)O[C@H]2C[C@H]3[C@@H]4CCC5CC(=O)C=C[C@]5(C)[C@H]4CC[C@]3(C)[C@H]2[C@@H]1C (some centres undefined)	25 µM
CCOc1ccc2c(c1)/C(=C(\C(Cl)=C(Cl)Cl)[N+](=O)[O-])N2	> 100 µM
CC(ONC(=O)c1cc(C(F)(F)F)cc(C(F)(F)F)c1)C(=O)Nc1ccc(Cl)cc1 (centres undefined)	37.4 µM
CC(=O)[O-].CC(=O)[O-].O=C(N/N=C/c1cc(Cl)cc(Cl)c1[OH2+])c1ccncc1.[Co+2]	> 100 µM
CN1CCN(c2ccc3c4c(cccc24)C(=O)N(CCN2CCN(CCCN4CCN(CCN5C(=O)c6cccc7c(N8CCN(C)CC8)ccc(c67)C5=O)CC4)CC2)C3=O)CC1	17.1 µM
O=C(Nc1cc(C(F)(F)F)ccc1F)Nc1n[nH]c2ccccc12	> 100 µM
O=C1/C(=C/c2ccccc2Cl)N=C(c2ccccc2)N1Cc1ccco1	> 100 µM
COc1cccc(/C=N\Nc2ccc([N+](=O)[O-])cn2)c1O	> 100 µM
O=C1OC(c2ccc(O)c(-c3ccccc3)c2)(c2ccc(O)c(-c3ccccc3)c2)c2c(Cl)c(Cl)c(Cl)c(Cl)c21	> 100 µM
O=C1c2ccccc2CC12Cc1cc3c(cc1C2=O)CCC3 (centres undefined)	> 100 µM
COc1ccc(C(c2ccc(C(C)C)cc(=O)c2O)c2c(O)cc3oc(-c4ccccc4)cc(=O)c3c2O)cc1 (centres undefined)	> 100 µM
CC(=O)O[C@H]1C[C@]2(C)C(CCC3O[C@@]32C)[C@@]2(CC(c3ccoc3)OC2O)[C@@H]1C (some centres undefined)	> 100 µM
Cc1cc(NS(=O)(=O)c2ccc(NC(=O)c3cccc4c(N)c5ccccc5nc34)cc2)no1	44.2 µM
N#Cc1[nH]c(=O)n(-c2ccc(Cl)cc2)c1N	> 10 µM
N=C(N)SCCc1cn2ccccc2n1	> 100 µM
CC(C)(C)[Si](C)(C)OCCCC#CCO	> 100 µM
Nc1ccc2c(c1)C(=O)c1c(F)cccc1-2	> 100 µM

----------
Tested on: KM12 colon
protocol-summary: NCI tumour cell line growth inhibition, 48 h

compound	TGI
CN1C(=O)CNC(=O)[C@H](NC(=O)c2nc3ccccc3cc2O)CSSC[C@H]1C(=O)NCCc1nc2ccccc2cc1O	47.7 µM
CC(=O)O[C@H]1CC[C@]2(C)[C@H]3CC[C@@H]4[C@H]5[C@H](C(C)C)CC[C@]5(C(=O)OCC(CO)(CO)N=C(N)N)CC[C@@]4(C)[C@]3(C)CC[C@H]2C1(C)C	3.36 µM
COc1ccc(C(O)CNC(=O)c2ccccc2)cc1 (centres undefined)	> 100 µM
O=C(OCCOCBr)c1ccccc1	> 100 µM
CCCNC(=S)N/N=C/c1cccc(C)n1	> 100 µM
Cn1c(COC(=O)N2CCCCC2)nc2c(N3CCOCC3)nc(-c3ccccc3)nc21	3.22 µM
O=P(O)(O)C(CSc1ccccc1)P(=O)(O)O	> 100 µM
CCC1CC2CN3CCc4c([nH]c5c(-c6c(OC)ccc7c8c([nH]c67)[C@]6(C(=O)OC)CC7CC(CC)C6N(CC8)C7)c(O)ccc45)[C@](C(=O)OC)(C2)C13 (some centres undefined)	32.3 µM
O=C1NC2(CCCCC2)N=C2C(Cl)CCCC12Cl (centres undefined)	> 100 µM
O=C1c2ccccc2C(=O)N1c1ccc(S(=O)(=O)Nc2ncccn2)cc1	> 100 µM
CN1CCC2(CC1)C(=O)N(N1CCCCCC1)C(=O)N2c1ccccc1	> 100 µM
CCc1n[nH]c(=O)n1N1C(=O)C2CC=CCC2C1=O (centres undefined)	> 100 µM
Nc1cc(-c2ccccc2)ccc1O	> 100 µM
NC1CC(=O)c2csc(Br)c21 (centres undefined)	> 57.9 µM
CC(C)=CCc1c(O)cc(/C=C/c2cc(O)c3c(c2)C[C@@H]2C(C)(C)[C@H](O)[C@H](O)C[C@@]2(C)O3)cc1O	4.11 µM
COc1ccc2c(c1)CC[C@@H]1[C@@H]2CC[C@@]2(C)[C@H]1CC1(CCCCC1)[C@@H]2O	27.3 µM
O=[N+]([O-])c1ccccc1N=Nc1c(O)[nH]c2ccccc12	> 100 µM
COc1cc(CSc2nc3ccc(C)cc3c(=O)n2Cc2ccccc2)cc(OC)c1OC	> 100 µM
COC(=O)C1=Nc2c(C)nn(-c3ccccc3)c2N=C(c2ccc(C)cc2)C1	> 10 µM

Hello, the source for this data is PubChem BioAssay (NCI), in case you need it.
